Reference for the values: patent US20260297105A1

# System: BRAF-MEK1
# Method summary: BRAF-MEK TR-FRET assay, stabilization of MEK1 and BRAF interaction
# Type: binding
# Particulars: 4 nM BRAF, 10 nM MEK, 100 μM ATP; 1 hr at 25° C.; read-out: BRAF-MEK TR-FRET Assay (EC50, fold stabilization)
Quantity name: EC50

Consider the worked cases shown below.
Compound | EC50
COC1CCN(S(=O)(=O)Nc2cccc(CN3Cc4ccc(OC(=O)N(C)C)cc4OC3=O)c2F)C1 (stereo not drawn) | 200 to 1000 nM
CNS(=O)(=O)Nc1cccc(CN2Cc3cc(F)c(Oc4ncccn4)cc3OC2=O)c1F | 200 to 1000 nM
CN(C)C(=O)Oc1ccc2c(c1)OC(=O)N(Cc1cccc(NS(=O)(=O)N3CCOCC3)c1F)C2 | 200 to 1000 nM
CNS(=O)(=O)Nc1cccc(CN2Cc3ccc(OC(=O)N(C)C)c(F)c3OC2=O)c1F | 50 to 200 nM
CNS(=O)(=O)Nc1nccc(CN2C(=O)Oc3cc(Oc4cccnn4)ccc3C23CCC3)c1F | < 50 nM

Ask: Look up EC50: CN(C)C(=O)Oc1ccc2c(c1)OC(=O)N(Cc1cccc(NS(=O)(=O)N3CCC(F)C3)c1F)C2 (stereo not drawn)
Reply: 200 to 1000 nM

Ask: Look up EC50: `CNS(=O)(=O)Nc1cccc(CN2C(=O)Oc3c(ccc(Oc4cccnn4)c3F)C23COC3)c1F`
Reply: 50 to 200 nM

Ask: Look up EC50: `[2H]C1([2H])c2ccc(Oc3nccnn3)cc2OC(=O)N1Cc1cccc(NS(=O)(=O)NC)c1F`
Reply: < 50 nM

Ask: Look up EC50: CNS(=O)(=O)Nc1cccc(CN2C(=O)Oc3cc(Oc4cccnn4)ccc3[C@@H]2C)c1F (single isomer, unassigned)
Reply: 50 to 200 nM

Ask: Look up EC50: `CNS(=O)(=O)Nc1nccc(CN2C(=O)Oc3cc(Oc4ncco4)cc(F)c3C23CCC3)c1F`
Reply: < 50 nM

Ask: Look up EC50: `CNS(=O)(=O)Nc1cccc(CN2C(=O)Oc3cc(OC(=O)N(C)C)ccc3C23COC3)c1F`
Reply: 50 to 200 nM

Ask: Look up EC50: `[2H]C1([2H])c2ccc(Oc3cccnn3)cc2OC(=O)N1Cc1cccc(NS(=O)(=O)N(C)C)c1F`
Reply: < 50 nM

Ask: Look up EC50: `CNS(=O)(=O)Nc1cccc(CN2Cc3cc(Cl)c(OC(=O)C(C)C)cc3OC2=O)c1F`
Reply: 200 to 1000 nM

Ask: Look up EC50: `O=C1Oc2cc(Oc3ncco3)ccc2C2(CCC2)N1Cc1ccnc(NS(=O)(=O)C2CC2)c1F`
Reply: 50 to 200 nM

Ask: Look up EC50: `CNS(=O)(=O)Nc1cccc(CN2C(=O)Oc3cc(Oc4ncco4)ccc3C23COC3)c1F`
Reply: 50 to 200 nM
